Source of measurements: PubChem BioAssay (NCI)

system: NCI-H460 lung; assay: NCI tumour cell line growth inhibition, 48 h
MEASURED METRIC: TGI

Please review the following examples before continuing.
MOLECULE: CN(C)CCSC(=Nc1ccccc1)N1C=COC=C1
TGI: > 100 µM
//
MOLECULE: CC1(C)Cc2cccc(OCC(O)CN3CCN(c4ccc(F)cc4)CC3)c2O1 (configuration not stated)
TGI: > 50 µM
//
MOLECULE: CN(C)c1ccccc1CC(c1c[nH]c2ccccc12)c1c[nH]c2ccccc12
TGI: 16 µM
//
MOLECULE: O=C1CSC(=S)N1c1ccc(F)cc1F
TGI: > 100 µM

q: TGI for Cc1ccc(Cl)cc1Nc1nc(C(F)(F)F)ccc1C(=O)N/N=C/c1c(Cl)cccc1Cl ?
a: 4.81 µM

----------
tested on: HCT-116 colon; assay: NCI tumour cell line growth inhibition, 48 h
MEASURED METRIC: TGI (µM)
Unit µM implied. Number only.

Please review the following examples before continuing.
ENTRY SMILES: O=C1C(c2ccc([N+](=O)[O-])cc2)=[N+]([O-])c2ccccc21
UNITS OF MEASURE: µM
TGI: 64.3
//
ENTRY SMILES: CC1(C)CC[C@]2(C(=O)n3ccnc3)CC[C@]3(C)[C@H](C(=O)C=C4[C@@]5(C)C=C(C#N)C(=O)C(C)(C)[C@@H]5CC[C@]43C)[C@@H]2C1
UNITS OF MEASURE: µM
TGI: 0.0273
//
ENTRY SMILES: Cn1c(=O)nc2n(-c3ccc(F)cc3)c3ccccc3nc-2c1=O
UNITS OF MEASURE: µM
TGI: 37.9
//
ENTRY SMILES: CC(=O)c1ccc(N2CCN(c3c(O)c4c(c(O)c3Cl)C(=O)C=CC4=O)CC2)cc1
UNITS OF MEASURE: µM
TGI: 11.9

q: TGI for CCCCCCCCCCCC1=NC(C)(C)CN1CCO ?
a: 3.76

----------
test system: OVCAR-5 ovarian; experiment: NCI tumour cell line growth inhibition, 48 h
Below, each of the compounds is paired with its reported TGI value.

Please review the following examples before continuing.
COMPOUND: Fc1ccc(CNc2c3ccccc3nc3ccccc23)cc1
RESULT: 9.25 µM
//
COMPOUND: COc1ccc(S(=O)(=O)N2CCN(C(=O)OCc3ccccc3)CC2C(=O)NO)cc1 (centres undefined)
RESULT: > 25 µM

q: TGI for CN(C)C1(C(=O)O)CC1 ?
a: > 100 µM

q: TGI for CN(CCCCCl)P(=O)(OCc1ccc([N+](=O)[O-])o1)C(F)(F)c1ccc(CC(=O)N[C@@H](CC(=O)O)C(=O)N[C@@H](Cc2ccc(C(F)(F)P(=O)(OCc3ccc([N+](=O)[O-])o3)N(C)CCCCCl)cc2)C(N)=O)cc1 (some centres undefined) ?
a: > 100 µM

----------
tested on: IGROV1 ovarian; experiment: NCI tumour cell line growth inhibition, 48 h
MEASURED METRIC: TGI

Please review the following examples before continuing.
MOLECULE: C=CCCC(O)c1ccc(C(O)CCCCCCCCCCCC)o1 (configuration not stated)
TESTED TARGET: IGROV1 ovarian
TGI: 43.2 µM
//
MOLECULE: COc1ccc(N2C(=O)CSC2c2cc3cc(Br)ccc3nc2Cl)cc1 (configuration not stated)
TESTED TARGET: IGROV1 ovarian
TGI: > 50 µM
//
MOLECULE: Nc1ccccc1/C=N\Nc1ccccc1
TESTED TARGET: IGROV1 ovarian
TGI: > 100 µM
//
MOLECULE: COc1nc(/C=N/NC(N)=S)nc(OC)n1
TESTED TARGET: IGROV1 ovarian
TGI: > 100 µM
//
MOLECULE: COC(=O)CSc1ccccc1
TESTED TARGET: IGROV1 ovarian
TGI: > 100 µM

q: TGI for O=C(O)CN(CC(=O)O)Cc1cc2c(cc1O)Oc1cc(O)c(CN(CC(=O)O)CC(=O)O)cc1C21OC(=O)c2ccccc21 ?
a: > 100 µM

q: TGI for Cn1c(=O)oc2cc(C(=S)N3CCC(Cc4ccccc4)CC3)ccc21 ?
a: > 100 µM

----------
system: A498 renal; assay: NCI tumour cell line growth inhibition, 48 h
Below, each of the compounds is paired with its reported TGI value.

Please review the following examples before continuing.
COMPOUND: COc1ccc(S(=O)(=O)N2CCN(C(=O)OCc3ccccc3)CC2C(=O)NO)cc1 (centres undefined)
TESTED TARGET: A498 renal
MEASURED METRIC: TGI
RESULT: > 25 µM

COMPOUND: C[C@@H]1CCC2[C@@H](C)[C@H](O[C@H]3O[C@@H]4O[C@@]5(C)CCC6[C@H](C)CCC([C@H]3C)[C@]64OO5)O[C@@H]3O[C@@]4(C)CCC1[C@@]23OO4 (some centres undefined)
TESTED TARGET: A498 renal
MEASURED METRIC: TGI
RESULT: 9.51 µM

q: TGI for Cn1c(=O)nc2n(CCO)ccnc-2c1=O ?
a: > 100 µM

q: TGI for O=C(O)CN(CC(=O)O)Cc1cc2c(cc1O)Oc1cc(O)c(CN(CC(=O)O)CC(=O)O)cc1C21OC(=O)c2ccccc21 ?
a: > 100 µM

q: TGI for CN(C)C(=S)N/N=C\C(=N/NC(=S)N(C)C)c1ccccc1 ?
a: 49.1 µM

q: TGI for COc1ccc(/C=C/C(=O)c2nc3ccccc3[nH]2)cc1 ?
a: > 82.7 µM

q: TGI for CCc1ccc(CCC(=O)O)nc1 ?
a: > 100 µM

q: TGI for COc1ccc2nc3cc(Cl)ccc3c(NCCC(=O)OCC(O)C(O)C(O[C@H](C)C(=O)NC(C)C(=O)NC(CCC(N)=O)C(=O)OCc3ccccc3)C(C=O)NC(C)=O)c2c1 (some centres undefined) ?
a: 37.7 µM

q: TGI for N#Cc1ccc(/C=N\N2C(=O)c3ccccc3C2=O)cc1 ?
a: > 100 µM

q: TGI for Nc1ncnc2c1c(-c1cccc(OCc3ccccc3)c1)cn2C1CC(CN2CCCC2)C1 (centres undefined) ?
a: 4.66 µM

q: TGI for CCc1ccc(CCC(=O)Nc2ncc(Cc3cc(Cl)ccc3Cl)s2)o1 ?
a: 3.46 µM

q: TGI for C=C[C@@]1(C)CC2CC[C@]3(C)C(C)=CC(=O)CC3[C@]2(C)CC1O (some centres undefined) ?
a: > 100 µM

q: TGI for Cc1nc2c(O)cccc2c(=O)[nH]1 ?
a: > 1000 µM

q: TGI for CC(C)=CCC/C(C)=C/CC/C(C)=C/CC/C=C(\C)CC/C=C(\C)CCC1SC1(C)C (centres undefined) ?
a: > 100 µM

q: TGI for Cn1c(=O)cc(NNc2ccc(Br)cc2)[nH]c1=O ?
a: > 100 µM

q: TGI for CN(CCCCCl)P(=O)(OCc1ccc([N+](=O)[O-])o1)C(F)(F)c1ccc(CC(=O)N[C@@H](CC(=O)O)C(=O)N[C@@H](Cc2ccc(C(F)(F)P(=O)(OCc3ccc([N+](=O)[O-])o3)N(C)CCCCCl)cc2)C(N)=O)cc1 (some centres undefined) ?
a: 87.5 µM

q: TGI for CC(=O)Oc1ccc2ccc(=O)oc2c1OC(C)=O ?
a: > 100 µM

q: TGI for Nc1ccccc1/C=N\Nc1ccccc1 ?
a: > 100 µM

q: TGI for Fc1ccc(-c2ncn(C3CCNCC3)c2-c2ccnc(Oc3ccccc3)n2)cc1 ?
a: > 25 µM

----------
test system: SNB-75 CNS; test: NCI tumour cell line growth inhibition, 48 h
MEASURED METRIC: TGI

COMPOUND: O=C1NCC2(CCN(Cc3ccccc3)CC2)N1
TESTED TARGET: SNB-75 CNS
RESULT: > 100 µM
--
COMPOUND: O=C(O)c1cc(N/C=C2\C(=O)c3ccccc3OC2O)ccc1O (centres undefined)
TESTED TARGET: SNB-75 CNS
RESULT: 129 µg/mL
--
COMPOUND: COC(=O)C1=C(C(=O)OC)SC(=C2c3ccsc3-c3sccc32)S1
TESTED TARGET: SNB-75 CNS
RESULT: 35.6 µM

q: Enter reported TGI observed with SNB-75 CNS for CC1=Nc2nc3ccccc3n2C(C)(C)C1
a: > 100 µM

----------
test system: KM12 colon; experiment: NCI tumour cell line growth inhibition, 48 h
MEASURED METRIC: TGI

Please review the following examples before continuing.
COMPOUND: COc1ccc(/C=C/C(=O)c2nc3ccccc3[nH]2)cc1
TGI: 19.8 µM
--
COMPOUND: CCOC(=O)C1(Cc2ccccc2)Cc2cc3c(cc2C1=O)CCC3 (stereo unspecified)
TGI: > 100 µM
--
COMPOUND: O=C(O)CN1CCNCCN(CC(=O)O)CCNCC1
TGI: > 100 µM
--
COMPOUND: N#Cc1ccc(/C=N\N2C(=O)c3ccccc3C2=O)cc1
TGI: > 100 µM
--
COMPOUND: Nc1ccn([C@H]2CO[C@@H](CO)O2)c(=O)n1
TGI: > 100 µM
--
COMPOUND: CCCCCCc1cc2cc(C(=O)Nc3ccccc3F)c(=N)oc2cc1O
TGI: 19.7 µM

q: TGI for COc1c(C(=O)/C(=N/Nc2ccccc2)C(C)=O)c(O)c(OC)c2occc12 ?
a: > 100 µM
